Tested on: T-Rex 293 cell line SC cells lacking increased expression of progesterone receptor isoform B protein
Assay: Cellular growth inhibition assay, T-Rex 293 SC cells not exposed to doxycycline (no increased progesterone receptor isoform B expression), CellTiter-Glo
Assay type: cell-based
Settings: T-Rex 293 SC cells without doxycycline (no increased PR isoform B), 72 hours
Description: The SC cells were seeded on poly-D-lysine coated, black clear-bottom 384-well plates at 2500/well, in 25 μL Phenol Red Free Dulbecco's Modified Eagle Medium (DMEM) supplemented with 10% w/w charcoal-dextran treated fetal bovine serum (FBS) and 1% w/w pen-strep, with or without 10 ng/mL doxycycline. […] At the end of the treatment duration, cell viability was quantified with CellTiter-Glo 2.0 reagent (Promega Cat #G9243). […] Data was normalized using zero luminescence for baseline. […]
Below, each entry is listed with its recorded GI50.

{"columns": ["compound", "GI50"],
 "data": [
  ["CCS(=O)(=O)Nc1ccc(Oc2cccc(OC3CC(C4CCN(c5ncc(C(=O)N[C@H]6C(C)(C)[C@H](Oc7ccc(C#N)c(Cl)c7)C6(C)C)cn5)CC4)C3)c2)c(-c2cn(C)c(=O)c3[nH]ccc23)c1 (stereo partly shown) [Compound I-104]", "> 3000 nM"],
  ["Cn1cc(-c2cc(C(C)(C)O)ccc2Oc2ccc(C3CN(C4CCN(c5ncc(C(=O)N[C@H]6C(C)(C)[C@H](Oc7ccc(C#N)c(Cl)c7)C6(C)C)cn5)CC4)C3)cc2)c2cc[nH]c2c1=O [Compound I-304]", "500 to 1500 nM"],
  ["CCS(=O)(=O)Nc1ccc(Oc2cccc(OCCCC3CCN(c4ncc(C(=O)N[C@H]5C(C)(C)[C@H](Oc6ccc(C#N)c(Cl)c6)C5(C)C)cn4)CC3)c2)c(-c2cn(C)c(=O)c3[nH]ccc23)c1 [Compound I-27]", "> 3000 nM"],
  ["Cn1cc(-c2cc(C(C)(C)O)ccc2Oc2ccc(CC3CCN(c4ncc(C(=O)N[C@H]5C(C)(C)[C@H](Oc6ccc(C#N)c(Cl)c6)C5(C)C)cn4)CC3)cc2)c2cc[nH]c2c1=O [Compound I-201]", "500 to 1500 nM"],
  ["CCS(=O)(=O)Nc1ccc(Oc2cccc(N3CCC(CC4CCN(c5ncc(C(=O)N[C@H]6C(C)(C)[C@H](Oc7ccc(C#N)c(Cl)c7)C6(C)C)cn5)CC4)CC3)c2)c(-c2cn(C)c(=O)c3[nH]ccc23)c1 [Compound I-36]", "> 3000 nM"],
  ["Cn1cc(-c2cc(C(C)(C)O)ccc2Oc2ccc(CC3CC4(CCN(c5ncc(C(=O)N[C@H]6C(C)(C)[C@H](Oc7ccc(C#N)c(Cl)c7)C6(C)C)cn5)CC4)C3)cc2)c2cc[nH]c2c1=O [Compound I-279]", "> 3000 nM"],
  ["CCS(=O)(=O)Nc1ccc(Oc2cccc(N3CC4(CN(CC5CCN(c6ncc(C(=O)N[C@H]7C(C)(C)[C@H](Oc8ccc(C#N)c(Cl)c8)C7(C)C)cn6)CC5)C4)C3)c2)c(-c2cn(C)c(=O)c3[nH]ccc23)c1 [Compound I-35]", "> 3000 nM"]
]}

---

System: T-Rex 293 cell line SC cells lacking increased expression of progesterone receptor isoform B protein
Test: Cellular growth inhibition assay, T-Rex 293 SC cells not exposed to doxycycline (no increased progesterone receptor isoform B expression), CellTiter-Glo
Assay type: cell-based
Conditions: T-Rex 293 SC cells without doxycycline (no increased PR isoform B), 72 hours
Below, each entry is listed with its recorded GI50.
assayMetric: GI50

{"columns": ["smilesData", "result"],
 "data": [
  ["Cn1cc(-c2cc(C(C)(C)O)ccc2Oc2ccc(OCCN3CCN(c4ncc(C(=O)N[C@H]5C(C)(C)[C@H](Oc6ccc(C#N)c(Cl)c6)C5(C)C)cn4)CC3)cc2)c2cc[nH]c2c1=O", "500 to 1500 nM"],
  ["CCS(=O)(=O)Nc1ccc(Oc2cccc(COC3CCN(c4ncc(C(=O)N[C@H]5C(C)(C)[C@H](Oc6ccc(C#N)c(Cl)c6)C5(C)C)cn4)CC3)c2)c(-c2cn(C)c(=O)c3[nH]ccc23)c1", "< 500 nM"],
  ["Cn1cc(-c2cc(C(C)(C)O)ccc2Oc2ccc(N3CC(CC4CN(c5cnc(C(=O)N[C@H]6C(C)(C)[C@H](Oc7ccc(C#N)c(Cl)c7)C6(C)C)cn5)C4)C3)cc2)c2cc[nH]c2c1=O", "500 to 1500 nM"],
  ["Cn1cc(-c2cc(C(C)(C)O)ccc2Oc2ccc(N3CC(OC4CN(c5ncc(C(=O)N[C@H]6C(C)(C)[C@H](Oc7ccc(C#N)c(Cl)c7)C6(C)C)cn5)C4)C3)cc2)c2cc[nH]c2c1=O", "500 to 1500 nM"],
  ["CCS(=O)(=O)Nc1ccc(Oc2cccc(OCCOC3CCN(c4ncc(C(=O)N[C@H]5C(C)(C)[C@H](Oc6ccc(C#N)c(Cl)c6)C5(C)C)cn4)CC3)c2)c(-c2cn(C)c(=O)c3[nH]ccc23)c1", "< 500 nM"],
  ["CCS(=O)(=O)Nc1ccc(Oc2ccc(OCC3CCN(c4ncc(C(=O)N[C@H]5C(C)(C)[C@H](Oc6ccc(C#N)c(Cl)c6)C5(C)C)cn4)CC3)cc2)c(-c2cn(C)c(=O)c3[nH]ccc23)c1", "< 500 nM"],
  ["CCS(=O)(=O)Nc1ccc(Oc2ccc(F)c(OCCOC3CCN(c4ncc(C(=O)N[C@H]5C(C)(C)[C@H](Oc6ccc(C#N)c(Cl)c6)C5(C)C)cn4)CC3)c2F)c(-c2cn(C)c(=O)c3[nH]ccc23)c1", "< 500 nM"],
  ["CN(C1CCN(c2ncc(C(=O)N[C@H]3C(C)(C)[C@H](Oc4ccc(C#N)c(Cl)c4)C3(C)C)cn2)CC1)C1CN(c2ccc(Oc3ccc(C(C)(C)O)cc3-c3cn(C)c(=O)c4[nH]ccc34)cc2)C1", "< 500 nM"],
  ["CCS(=O)(=O)Nc1ccc(Oc2cccc(N3CC(OC4CCN(c5ncc(C(=O)N[C@H]6C(C)(C)[C@H](Oc7ccc(C#N)c(Cl)c7)C6(C)C)cn5)CC4)C3)c2F)c(-c2cn(C)c(=O)c3[nH]ccc23)c1", "> 3000 nM"]
]}

---

System: T-Rex 293 cell line SC cells lacking increased expression of progesterone receptor isoform B protein
Assay: Cellular growth inhibition assay, T-Rex 293 SC cells not exposed to doxycycline (no increased progesterone receptor isoform B expression), CellTiter-Glo
Assay type: cell-based
Conditions: T-Rex 293 SC cells without doxycycline (no increased PR isoform B), 72 hours
Method: The SC cells were seeded on poly-D-lysine coated, black clear-bottom 384-well plates at 2500/well, in 25 μL Phenol Red Free Dulbecco's Modified Eagle Medium (DMEM) supplemented with 10% w/w charcoal-dextran treated fetal bovine serum (FBS) and 1% w/w pen-strep, with or without 10 ng/mL doxycycline. […] At the end of the treatment duration, cell viability was quantified with CellTiter-Glo 2.0 reagent (Promega Cat #G9243). […] Data was normalized using zero luminescence for baseline. […]

{"columns": ["smilesData", "GI50"],
 "data": [
  ["Cn1cc(-c2cc(C(C)(C)O)ccc2Oc2cccc(N3CC(N4CCN(c5ncc(C(=O)N[C@H]6C(C)(C)[C@H](Oc7ccc(C#N)c(Cl)c7)C6(C)C)cn5)CC4)C3)c2F)c2cc[nH]c2c1=O", "< 500 nM"],
  ["CCS(=O)(=O)c1ccc(Oc2ccc(OCC3CCN(c4ncc(C(=O)N[C@H]5C(C)(C)[C@H](Oc6ccc(C#N)c(Cl)c6)C5(C)C)cn4)CC3)cc2)c(-c2cn(C)c(=O)c3[nH]ccc23)c1", "< 500 nM"],
  ["Cn1cc(-c2cc(C(C)(C)O)ccc2Oc2ccc(N3CC(CC4CCN(c5ncc(C(=O)N[C@H]6C(C)(C)[C@H](Oc7ccc(C#N)c(Cl)c7)C6(C)C)cn5)CC4)C3)cc2)c2cc[nH]c2c1=O", "500 to 1500 nM"],
  ["CCS(=O)(=O)Nc1ccc(Oc2cccc(OCCOCCOCCOCCOCCN(C)c3ncc(C(=O)N[C@H]4C(C)(C)[C@H](Oc5ccc(C#N)c(Cl)c5)C4(C)C)cn3)c2)c(-c2cn(C)c(=O)c3[nH]ccc23)c1", "500 to 1500 nM"],
  ["CN(c1ccc(Oc2ccc(C(C)(C)O)cc2-c2cn(C)c(=O)c3[nH]ccc23)cc1)C1CCN(c2ncc(C(=O)N[C@H]3C(C)(C)[C@H](Oc4ccc(C#N)c(Cl)c4)C3(C)C)cn2)CC1", "< 500 nM"],
  ["Cn1cc(-c2cc(C(C)(C)O)ccc2Oc2ccc(N3CC(OC4CCN(c5ncc(C(=O)N[C@H]6C(C)(C)[C@H](Oc7ccc(C#N)c(Cl)c7)C6(C)C)cn5)CC4)C3)cc2)c2cc[nH]c2c1=O", "> 3000 nM"],
  ["CCS(=O)(=O)c1ccc(Oc2ccc(OCC3CCN(c4ncc5c(n4)CN([C@H]4C(C)(C)[C@H](Cc6ccc(C#N)c(Cl)c6)C4(C)C)C5=O)CC3)cc2)c(-c2cn(C)c(=O)c3[nH]ccc23)c1", "< 500 nM"],
  ["Cn1cc(-c2cc(C(C)(C)O)ccc2Oc2ccc(N3CC(C4CCN(c5ncc(C(=O)N[C@H]6C(C)(C)[C@H](Oc7ccc(C#N)c(Cl)c7)C6(C)C)cn5)CC4)C3)cc2)c2cc[nH]c2c1=O", "500 to 1500 nM"],
  ["Cn1cc(-c2cc(C(C)(C)O)ccc2Oc2cccc(N3CC(CC4CCN(c5ncc(C(=O)N[C@H]6C(C)(C)[C@H](Oc7ccc(C#N)c(Cl)c7)C6(C)C)cn5)CC4)C3)c2F)c2cc[nH]c2c1=O", "> 3000 nM"],
  ["Cn1cc(-c2cc(C(C)(C)O)ccc2Oc2ccc(CCCC3CC4(C3)CN(c3ncc(C(=O)N[C@H]5C(C)(C)[C@H](Oc6ccc(C#N)c(Cl)c6)C5(C)C)cn3)C4)cc2)c2cc[nH]c2c1=O", "< 500 nM"],
  ["CCS(=O)(=O)c1ccc(Oc2cccc(CCCCN3CC4(C3)CN(c3ncc(C(=O)N[C@H]5C(C)(C)[C@H](Oc6ccc(C#N)c(Cl)c6)C5(C)C)cn3)C4)c2F)c(-c2cn(C)c(=O)c3[nH]ccc23)c1", "< 500 nM"],
  ["Cn1cc(-c2cc(C(C)(C)O)ccc2Oc2ccc(N3CC(CC4CN(c5ncc(C(=O)N[C@H]6C(C)(C)[C@H](Oc7ccc(C#N)c(Cl)c7)C6(C)C)cn5)C4)C3)cc2)c2cc[nH]c2c1=O", "< 500 nM"],
  ["CCS(=O)(=O)c1ccc(Oc2cccc(OCCN3CCN(c4ncc(C(=O)N[C@H]5C(C)(C)[C@H](Oc6ccc(C#N)c(Cl)c6)C5(C)C)cn4)CC3)c2F)c(-c2cn(C)c(=O)c3[nH]ccc23)c1", "< 500 nM"],
  ["Cn1cc(-c2cc(C(C)(C)O)ccc2Oc2ccc(OCC3CCN(c4ncc(C(=O)N[C@H]5C(C)(C)[C@H](Oc6ccc(C#N)c(Cl)c6)C5(C)C)cn4)CC3)cc2)c2cc[nH]c2c1=O", "500 to 1500 nM"],
  ["CN(CCc1ccc(Oc2ccc(C(C)(C)O)cc2-c2cn(C)c(=O)c3[nH]ccc23)cc1)c1ncc(C(=O)N[C@H]2C(C)(C)[C@H](Oc3ccc(C#N)c(Cl)c3)C2(C)C)cn1", "< 500 nM"],
  ["CCS(=O)(=O)Nc1ccc(Oc2cccc(OCCN(C)c3ncc(C(=O)N[C@H]4C(C)(C)[C@H](Oc5ccc(C#N)c(Cl)c5)C4(C)C)cn3)c2)c(-c2cn(C)c(=O)c3[nH]ccc23)c1", "< 500 nM"],
  ["CN(CCCOc1ccc(Oc2ccc(C(C)(C)O)cc2-c2cn(C)c(=O)c3[nH]ccc23)cc1)c1ncc(C(=O)N[C@H]2C(C)(C)[C@H](Oc3ccc(C#N)c(Cl)c3)C2(C)C)cn1", "< 500 nM"],
  ["Cn1cc(-c2cc(C(C)(C)O)ccc2Oc2ccc(N3CC(CC4CN(c5ccc(C(=O)N[C@H]6C(C)(C)[C@H](Oc7ccc(C#N)c(Cl)c7)C6(C)C)nc5)C4)C3)cc2)c2cc[nH]c2c1=O", "1500 to 3000 nM"]
]}

Recorded values, source patent US20250388605A1.
